target: PERK (Homo sapiens, UniProt Q9NZJ5); construct: GST-PERK (536-1116) cytoplasmic domain was purchased from Invitrogen; purchased Invitrogen PV5106; assay: PKR-like Endoplasmic Reticulum Kinase (PERK) Assay (HTRF Format); assay type: biochemical; details: average, in at least one set of experimental runs; read-out: average pIC50 value against PERK (converted)
Sequence (Q9NZJ5 536-1116): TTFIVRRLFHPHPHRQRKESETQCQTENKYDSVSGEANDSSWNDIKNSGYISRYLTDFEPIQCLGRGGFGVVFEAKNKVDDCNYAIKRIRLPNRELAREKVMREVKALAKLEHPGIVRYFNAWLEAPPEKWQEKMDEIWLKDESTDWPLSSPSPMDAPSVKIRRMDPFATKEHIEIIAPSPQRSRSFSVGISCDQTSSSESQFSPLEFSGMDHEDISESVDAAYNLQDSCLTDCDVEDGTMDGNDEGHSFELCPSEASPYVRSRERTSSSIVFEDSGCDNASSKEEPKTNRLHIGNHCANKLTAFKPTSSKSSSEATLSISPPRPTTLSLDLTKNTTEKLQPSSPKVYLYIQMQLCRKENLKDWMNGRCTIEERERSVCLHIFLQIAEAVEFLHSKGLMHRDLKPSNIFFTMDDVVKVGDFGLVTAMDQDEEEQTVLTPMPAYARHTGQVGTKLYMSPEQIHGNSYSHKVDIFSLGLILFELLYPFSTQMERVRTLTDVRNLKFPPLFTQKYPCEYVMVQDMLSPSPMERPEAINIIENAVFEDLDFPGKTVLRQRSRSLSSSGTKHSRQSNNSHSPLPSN
Reported IC50 values for a set of compounds

Cn1cc(-c2ccc3c(c2F)CCN3C(=O)Cc2cccc(C(F)(F)F)n2)c2c(N)ncnc21	≤ 1 nM
Cc1cc(C)n(CC(=O)N2CCc3cc(-c4cn(C)c5ncnc(N)c45)ccc32)n1	≤ 1 nM
Cn1cc(-c2cnc(N)c3c(-c4ccc5c(c4)CCN5C(=O)Cc4ccccc4)csc23)cn1	≤ 2.51 nM
Cc1cc(F)cc(CC(=O)N2CCc3cc(-c4cn(C)c5ncnc(N)c45)ccc32)c1	≤ 0.316 nM

Lab book: IC50 of Cn1nc(-c2ccc3c(c2)CCN3C(=O)Cc2cc(F)cc(F)c2F)c2c(N)ncnc21 noted as ≤ 2.51 nM

Entry Cn1cc(-c2ccc3c(c2)CCN3C(=O)Cc2cc(F)ccc2F)c2c(N)ncnc21 , IC50 reported as ≤ 1 nM
